molecular target: CTLA-4 (human); assay: flow cytometry, cells expressing CTLA-4
Sequence (chain, as listed by the source): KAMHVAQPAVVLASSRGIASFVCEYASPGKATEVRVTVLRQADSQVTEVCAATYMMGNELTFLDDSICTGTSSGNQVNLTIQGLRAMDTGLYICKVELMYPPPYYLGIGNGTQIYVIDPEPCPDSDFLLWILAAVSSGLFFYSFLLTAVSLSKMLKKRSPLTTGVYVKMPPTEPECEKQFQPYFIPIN
quantity: parental ratio
// no unit string in output, number only

# input // returns reported parental ratio for input variant CD80 K54M/L70Q/A91G/Y164H (Fc fusion) VIHVTKEVKEVATLSCGHNVSVEELAQTRIYWQKEKKMVLTMMSGDMNIWPEYMNRTIFDITNNLSIVIQALRPSDEGTYECVVLKYEKDGFKREHLAEVTLSVKADFPTPSISDFEIPTSNIRRIICSTSGGFPEPHLSWLENGEELNAINTTVSQDPETELHAVSSKLDFNMTTNHSFMCLIKYGHLRVNQTFNWNTTKQEHFPDN
# output 0.63

# input Would you kindly share the measured parental ratio for variant CD80 V22A/L70Q/S121P (Fc fusion) VIHVTKEVKEVATLSCGHNVSAEELAQTRIYWQKEKKMVLTMMSGDMNIWPEYKNRTIFDITNNLSIVIQALRPSDEGTYECVVLKYEKDAFKREHLAEVTLSVKADFPTPSISDFEIPTPNIRRIICSTSGGFPEPHLSWLENGEELNAINTTVSQDPETELYAVSSKLDFNMTTNHSFMCLIKYGHLRVNQTFNWNTTKQEHFPDN ?
# output 0.04
